Each recorded value in this set is attributed to patent US8063225B2.

# Test system: SKMM2
# Experiment: Cell proliferation inhibition, MTT assay, SKMM2
# Assay type: cell-based
# Test Conditions: Homo sapiens, SK-MM-2, 72 h, SKMM2 multiple myeloma cells, 3-day proliferation
Measure Name: IC50

Which IC50 value belongs to CCc1cc2c(cc1OCC(=O)CNc1cc[nH]c(=O)c1-c1nc3cc4c(cc3[nH]1)C(=O)N(C1CCN(C)CC1)C4)OCO2 [drawing 849] ?
5 to 20 µM

Which IC50 value belongs to CN1CCC(N2Cc3cc4[nH]c(-c5c(NCC(=O)COc6ccccc6Br)cc[nH]c5=O)nc4cc3C2=O)CC1 [drawing 848] ?
1 to 5 µM

Need IC50 of Cc1ccc(OCC(=O)CNc2cc[nH]c(=O)c2-c2nc3cc4c(cc3[nH]2)CN(CCCN2CCCC2)C4=O)c(C)c1 [drawing 847] , thanks.
5 to 20 µM

State the recorded IC50 for this entry: COc1ccc(OCC(=O)CNc2cc[nH]c(=O)c2-c2nc3cc4c(cc3[nH]2)C(=O)N(C2CCN(C)CC2)C4)c(Cl)c1 [drawing 850]
5 to 20 µM

State the recorded IC50 for this entry: Cc1ccc(OCC(=O)CNc2cc[nH]c(=O)c2-c2nc3cc4c(cc3[nH]2)CN(C2CCN(C)CC2)C4=O)c(C)c1 [drawing 845]
5 to 20 µM

###

The reader will find IC50 measurements below, all made with Jak2 (Homo sapiens, UniProt O60674).
Sequence (O60674 849-1124 limits assumed, species assumed): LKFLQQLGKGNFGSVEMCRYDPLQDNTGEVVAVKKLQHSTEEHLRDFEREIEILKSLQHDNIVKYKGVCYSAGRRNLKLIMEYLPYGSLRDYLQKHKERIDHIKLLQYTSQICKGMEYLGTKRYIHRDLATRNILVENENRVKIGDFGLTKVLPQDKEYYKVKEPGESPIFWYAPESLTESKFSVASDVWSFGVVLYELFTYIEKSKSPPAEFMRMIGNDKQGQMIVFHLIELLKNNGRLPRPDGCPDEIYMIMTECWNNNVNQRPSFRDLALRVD

State the recorded IC50 for this entry: Cc1ccc(OC[C@H](O)CNc2cc[nH]c(=O)c2-c2nc3cc4c(cc3[nH]2)C(=O)N(CC2CCN(CCO)CC2)C4=O)c(C)c1
0.5 to 5 µM

Requested read-out: IC50. Entry: CN1CCC(N2C(=O)c3cc4nc(-c5c(NC[C@@H](O)COc6cccc7ccccc67)cc[nH]c5=O)[nH]c4cc3C2=O)CC1
0.5 to 5 µM

Returns the measured IC50 for the input compound. Input: O=C1CCCN1CCCN1C(=O)c2cc3nc(-c4c(NC[C@@H](O)c5cccc(Cl)c5)cc[nH]c4=O)[nH]c3cc2C1=O
0.5 to 5 µM

Fill in: IC50 of CN1CCC(N2C(=O)c3cc4nc(-c5c(N[C@H](CO)Cc6c[nH]cn6)cc[nH]c5=O)[nH]c4cc3C2=O)CC1 is ___
> 15 µM

Requested field: IC50. Item: Cc1ccc(OC[C@H](O)CNc2cc[nH]c(=O)c2-c2nc3cc4c(cc3[nH]2)C(=O)N(CC(C)(C)CN(C)C)C4=O)c(C)c1
0.5 to 5 µM

# get_value(readout='IC50', item= COc1ccc2c(c1)cc(C)n2C[C@H](O)CNc1ccnc(O)c1-c1nc2cc3c(cc2[nH]1)C(=O)N(C1CCN(C)CC1)C3=O )
0.5 to 5 µM

Continuing:
Which IC50 is reported for this compound? Cc1ccc(OCC(O)CNc2cc[nH]c(=O)c2-c2nc3cc4c(cc3[nH]2)C(=O)N(C2CCN(C)CC2)C4=O)cc1C (stereo not shown)
5 to 15 µM

Report IC50 for CN1CCC(N2C(=O)c3cc4nc(-c5c(NC[C@@H](O)COc6ccc7ccccc7c6)cc[nH]c5=O)[nH]c4cc3C2=O)CC1 please.
0.5 to 5 µM

Entry CC(=N)N1CCC(N2C(=O)c3cc4nc(-c5c(NC[C@@H](O)COc6ccc(C)cc6C)cc[nH]c5=O)[nH]c4cc3C2=O)CC1 : reported IC50 = ?
0.5 to 5 µM

Find the recorded IC50 belonging to Cc1ccc(OC[C@@H](O)CNc2cc[nH]c(=O)c2-c2nc3cc4c(cc3[nH]2)C(=O)N([C@H]2CCN(C)C2)C4=O)c(C)c1 and report it.
0.5 to 5 µM

Find the recorded IC50 belonging to O=C1c2cc3nc(-c4c(NC[C@@H](O)c5cccc(Cl)c5)cc[nH]c4=O)[nH]c3cc2C(=O)N1CCc1cccnc1 and report it.
> 15 µM

Could you tell me which IC50 is on file for CN1CCN(CCCN2C(=O)c3cc4nc(-c5c(NC[C@@H](O)c6cccc(Cl)c6)cc[nH]c5=O)[nH]c4cc3C2=O)CC1 ?
0.5 to 5 µM
